meta.source: the supplement of paper PMC9170038

System: MS2 coat protein
Assay: apparent KD of MS2 coat protein; designed switch direction (-1 OFF switch, 1 ON switch): -1; higher = weaker reporter binding
Settings: input ligand: FMN 200 uM
Recorded apparent KD of MS2 coat protein by entry
ASSAY ENDPOINT: apparent KD of MS2 coat protein

INSERT INTO measurements (sequence_string, result) VALUES
  ('CACUAACAUGAGGAUCACCCAUGUUAGGAUAUGCAGUUCGGCCAACGGGCCCGAACAUGUAGAAGGAACAGGGU [Eternabot (L2) Solution 44] (Eterna round: R97, puzzle: Exclusion 1)', '81.3 nM'),
  ('UAGCGACCAUACAUGAGGAUCACCCAUGUGAAUGCCCACCGCGAGGAUAUCGAGUCCACUCGGGCCGAGAAGGCGCGACCUCAA [Eternabot solution 43] (Eterna round: R96, puzzle: Exclusion NG 3)', '34.8 nM'),
  ('CAAUAUUACUGAGGAUAUCCUAUUGUAUUUCAGGGAGAAGGCAGACUCAACAUGAGGAUCACCCAUGUAAGACGGGUACUAGAU [Ex NG1 #18] (Eterna round: R96, puzzle: Exclusion NG 1)', '97 nM');
